Origin of values: patent US20250154240A1

# Test system: CyCXCL1
# Sequence (as listed by the source): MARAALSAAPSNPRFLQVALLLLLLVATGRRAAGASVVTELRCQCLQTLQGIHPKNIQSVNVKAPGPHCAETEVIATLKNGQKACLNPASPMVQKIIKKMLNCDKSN
# procedure.details: CyCXCL1 binding activity ELISA
# Parameters: species or system cynomolgus monkey
# cond: absorbance to CyCXCL1 relative to absorbance to HuCXCL1
parameter.measured: Binding activity to CyCXCL1 ELISA

molecule: 4A-2F7: mouse monoclonal anti-HuCXCL1 antibody clone; VH SEQ ID NO: 9, VL SEQ ID NO: 13 (antibody, listed as Mus musculus, V domains shown) VH: QVTLKESGPGILKPSQTLSLTCSFSGFSLSTSGMGVDWIRQPSGKGLEWLAHIWWDDDKYYNPSLKSQLTISKDTSRNQVFLKITSVDTADTATYYCARSYGYDMDYYAMDYWGQGTSVTVSS VL: DIQMTQSPSSLSASLGERVSLTCRASQEISGYLSWLQQKPDGTIKRLIYAASTLDSGVPKRFSGSRSGSDYSLTISSLESEDFADYYCLQYASYPPWTFGGGTKLEIK
observed: ∘
--
molecule: 028-8-12: human antibody against CXCL1 from the human ADLib technique; VH SEQ ID NO: 25, VL SEQ ID NO: 29 (antibody, listed as Gallus gallus, V domains shown) VH: EVQLLESGGGLVQPGGSLRLSCAASGFTFSELSMSWVRQAPGKGLEWVSAISGSGGSTYYADSVKGRFTISRDNSKNTLYLQMNSLRAEDTAVYYCAREGGRLEPYYYYYAMDVWGQGTPVTVSS VL: DIQMTQSPSSLSASVGDRVTITCRASQSISDNLHWYQQKPGKAPKLLIYDASNLESGVPSRFSGSGSGTDFTLTINSLQPEDFATYYCQQYYSTPLTFGQGTKLEIK
observed: ∘
--
molecule: 5A-5E11: mouse monoclonal anti-HuCXCL1 antibody clone; VH SEQ ID NO: 17, VL SEQ ID NO: 21 (antibody, listed as Mus musculus, V domains shown) VH: QVQLQQSGAELVRPGSSVKISCKASGYAFSDYWMNWVKQRPGQGLEWIGQIYPGDGDTNYNGKFKGKGTLTADKSSSTAYMQLNSLTSEDSAVYFCARERDYDVAMDYWGQGTSVTVSS VL: DIQMTQSPSSLSASLGGKVTITCKASQDINKYIAWFQHKPGKGPRLVIHYTSILQPGIPSRFSGVGSGRDYSFSIRNLEPEDIATYYCLQYDNLPWTFGGGTKLEIK
observed: ∘
